Exercise: for every item that follows, state its recorded protein stability index.
B1: CHCHD3 (parent)
chain: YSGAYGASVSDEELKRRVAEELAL

# Variants of: B1
# assayText: protein stability index of a GFP-peptide fusion (GPS, HEK-293T) (PSI 1-6); higher = more stable;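 further: lentivirally expressed fusions sorted by FACS into six bins by GFP to DsRed ratio, PSI derived from sequencing read proportions per bin multiplied by bin number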
# settings: c terminus: a fixed tail appended
Give the value as a plain number.

Quick check: protein stability index of `G6D` ?
4.67

What does the record list as protein stability index for `G6V` ?
2.48

Could you tell me which protein stability index is on file for `E13Q` ?
2.3

Look at this variant and give its reported protein stability index. `S2K`
4.35

For `R16V` , what is its reported protein stability index?
2.17

Item under review: `E13V` . Reported protein stability index?
2.38

What value of protein stability index has been recorded for this entry: `K15A`
2.99

Given the variant `A23K` , what is its reported protein stability index?
2.71

Look at this variant and give its reported protein stability index. `R17F`
2.12

Recorded protein stability index for `G3N` , please?
4.18

# query: protein stability index of entry `S10H`
2.98
